Listed below: % ID Intestines values for each entry.
Test: Biodistribution studies of 11C tracers
Format: in vivo, Wistar rats
Details: 60 min p.i.
readout.name: % ID Intestines (% ID)

• [11CH3]Oc1ccc(F)c(F)c1C1CCN(c2ccn3c(CC4CC4)nnc3c2Cl)CC1 [[^11C]B-10] = 11.8
• [11CH3]Oc1c(F)ccc(F)c1C1CCN(c2ccn3c(CC4CC4)nnc3c2Cl)CC1 [[^11C]B-2] = 15.6
• [11CH3]Oc1c(F)ccc(F)c1C1CCN(c2ccn3c(CC4CC4)nnc3c2C(F)(F)F)CC1 [[^11C]B-3] = 14.8
• [11CH3]Oc1cc(F)cc(F)c1C1CCN(c2ccn3c(CC4CC4)nnc3c2Cl)CC1 [[^11C]B-7] = 13.4
• [11CH3]Oc1cccc(F)c1C1CCN(c2ccn3c(CC4CC4)nnc3c2Cl)CC1 [[^11C]B-6] = 12.0
• [11CH3]Oc1ccc(F)cc1C1CCN(c2ccn3c(CC4CC4)nnc3c2Cl)CC1 [[^11C]B-4] = 11.1

* * *

Molecular target: mGluR2 (Rattus norvegicus, UniProt P31421)
Construct: from tissue; host or cells: brain of living male Wistar rats (in vivo microPET)
Sequence (P31421 19-872): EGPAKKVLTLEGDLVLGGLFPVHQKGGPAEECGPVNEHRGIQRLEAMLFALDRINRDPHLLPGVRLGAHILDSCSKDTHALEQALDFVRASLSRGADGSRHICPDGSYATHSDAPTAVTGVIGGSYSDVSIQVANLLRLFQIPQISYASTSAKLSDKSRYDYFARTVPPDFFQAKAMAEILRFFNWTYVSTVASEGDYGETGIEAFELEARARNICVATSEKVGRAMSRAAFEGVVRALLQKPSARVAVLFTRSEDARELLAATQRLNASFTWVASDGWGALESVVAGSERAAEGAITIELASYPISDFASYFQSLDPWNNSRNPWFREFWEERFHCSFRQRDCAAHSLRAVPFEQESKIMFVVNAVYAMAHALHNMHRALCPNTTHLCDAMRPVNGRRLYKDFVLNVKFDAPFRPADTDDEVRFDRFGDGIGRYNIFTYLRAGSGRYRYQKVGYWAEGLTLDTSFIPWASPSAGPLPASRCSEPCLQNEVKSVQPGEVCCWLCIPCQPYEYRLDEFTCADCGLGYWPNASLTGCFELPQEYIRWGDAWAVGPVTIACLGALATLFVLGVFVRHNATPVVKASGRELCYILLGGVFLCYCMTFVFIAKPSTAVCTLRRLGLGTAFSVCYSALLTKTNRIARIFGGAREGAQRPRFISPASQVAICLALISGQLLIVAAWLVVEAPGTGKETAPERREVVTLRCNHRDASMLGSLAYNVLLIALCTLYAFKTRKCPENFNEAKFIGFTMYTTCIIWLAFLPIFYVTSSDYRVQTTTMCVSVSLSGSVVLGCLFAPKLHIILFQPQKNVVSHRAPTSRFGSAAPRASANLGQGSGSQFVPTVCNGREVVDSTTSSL
Assay: MicroPET imaging: baseline, blocking and chase experiments
Format: in vivo, Wistar rats
Details: maximum SUV; chase compound B 4 mg/kg i.v. 30 min after tracer
Listed below: SUV (total brain) before chase values for each entry.
readout.name: SUV (total brain) before chase

- [11CH3]Oc1c(F)ccc(F)c1C1CCN(c2ccn3c(CC4CC4)nnc3c2Cl)CC1 [[^11C]B-2]: 1.4
- [11CH3]Oc1ccc(F)c(F)c1C1CCN(c2ccn3c(CC4CC4)nnc3c2Cl)CC1 [[^11C]B-10]: 1.2
- [11CH3]Oc1ccc(F)cc1C1CCN(c2ccn3c(CC4CC4)nnc3c2Cl)CC1 [[^11C]B-4]: 1.05
- [11CH3]Oc1cc(F)cc(F)c1C1CCN(c2ccn3c(CC4CC4)nnc3c2Cl)CC1 [[^11C]B-7]: 1.2

* * *

Experiment: Biodistribution studies of 11C tracers
Assay type: in vivo, Wistar rats
Details: 60 min p.i., normalized for body weight
readout.name: SUV Cortex

- [11CH3]Oc1ccc(F)cc1C1CCN(c2ccn3c(CC4CC4)nnc3c2Cl)CC1 [[^11C]B-4]: 1.34
- [11CH3]Oc1cc(F)cc(F)c1C1CCN(c2ccn3c(CC4CC4)nnc3c2Cl)CC1 [[^11C]B-7]: 1.10
- [11CH3]Oc1cccc(F)c1C1CCN(c2ccn3c(CC4CC4)nnc3c2Cl)CC1 [[^11C]B-6]: 1.01
- [11CH3]Oc1c(F)ccc(F)c1C1CCN(c2ccn3c(CC4CC4)nnc3c2C(F)(F)F)CC1 [[^11C]B-3]: 1.13
- [11CH3]Oc1c(F)ccc(F)c1C1CCN(c2ccn3c(CC4CC4)nnc3c2Cl)CC1 [[^11C]B-2]: 1.28
- [11CH3]Oc1ccc(F)c(F)c1C1CCN(c2ccn3c(CC4CC4)nnc3c2Cl)CC1 [[^11C]B-10]: 1.08

* * *

Test system: hmGluR1, hmGluR3, hmGluR4, hmGluR5, rmGluR6, hmGluR7 and hmGluR8
Test: Selectivity for hmGluR2 in functional receptor assays (Ca2+ mobilization or [35S]GTPγS)
Assay type: cell-based, human; rat (mGluR6)
Conditions: hmGluR2 versus other mGluRs
readout.name: Selectivity over mGluR1, mGluR3-mGluR8

* COc1cccc(F)c1C1CCN(c2ccn3c(CC4CC4)nnc3c2Cl)CC1 | > 1,000 fold
* COc1c(C2CCN(c3ccn4c(CC5CC5)nnc4c3Cl)CC2)ccc(F)c1F | > 1,000 fold
* COc1c(F)ccc(F)c1C1CCN(c2ccn3c(CC4CC4)nnc3c2Cl)CC1 | >1,000 fold
* COc1c(F)ccc(F)c1C1CCN(c2ccn3c(CC4CC4)nnc3c2C(F)(F)F)CC1 | >1,000 fold
* COc1ccc(F)cc1C1CCN(c2ccn3c(CC(F)(F)F)nnc3c2Cl)CC1 | >1,000 fold
* COc1c(F)cccc1C1CCN(c2ccn3c(CC4CC4)nnc3c2C(F)(F)F)CC1 | ≥ 1,000 fold
* COc1c(F)cccc1C1CCN(c2ccn3c(CC4CC4)nnc3c2Cl)CC1 | >500 fold
* COc1ccc(F)cc1C1CCN(c2ccn3c(CC4CC4)nnc3c2Cl)CC1 | > 500 fold

* * *

Test: Biodistribution studies of 11C tracers
Format: in vivo, Wistar rats
Conditions: 60 min p.i.
readout.name: % ID Stomach (% ID)

- [11CH3]Oc1c(F)ccc(F)c1C1CCN(c2ccn3c(CC4CC4)nnc3c2Cl)CC1 [[^11C]B-2]: 1.7
- [11CH3]Oc1c(F)ccc(F)c1C1CCN(c2ccn3c(CC4CC4)nnc3c2C(F)(F)F)CC1 [[^11C]B-3]: 9.6
- [11CH3]Oc1cc(F)cc(F)c1C1CCN(c2ccn3c(CC4CC4)nnc3c2Cl)CC1 [[^11C]B-7]: 2.4
- [11CH3]Oc1cccc(F)c1C1CCN(c2ccn3c(CC4CC4)nnc3c2Cl)CC1 [[^11C]B-6]: 4.3
- [11CH3]Oc1ccc(F)cc1C1CCN(c2ccn3c(CC4CC4)nnc3c2Cl)CC1 [[^11C]B-4]: 1.6
- [11CH3]Oc1ccc(F)c(F)c1C1CCN(c2ccn3c(CC4CC4)nnc3c2Cl)CC1 [[^11C]B-10]: 2.0

* * *

Test: Biodistribution studies of 11C tracers
Assay type: in vivo, Wistar rats
Conditions: 60 min p.i., normalized for body weight
readout.name: SUV Striatum

- [11CH3]Oc1cc(F)cc(F)c1C1CCN(c2ccn3c(CC4CC4)nnc3c2Cl)CC1 [[^11C]B-7]: 1.43
- [11CH3]Oc1c(F)ccc(F)c1C1CCN(c2ccn3c(CC4CC4)nnc3c2C(F)(F)F)CC1 [[^11C]B-3]: 1.76
- [11CH3]Oc1cccc(F)c1C1CCN(c2ccn3c(CC4CC4)nnc3c2Cl)CC1 [[^11C]B-6]: 1.46
- [11CH3]Oc1c(F)ccc(F)c1C1CCN(c2ccn3c(CC4CC4)nnc3c2Cl)CC1 [[^11C]B-2]: 1.72
- [11CH3]Oc1ccc(F)c(F)c1C1CCN(c2ccn3c(CC4CC4)nnc3c2Cl)CC1 [[^11C]B-10]: 1.55
- [11CH3]Oc1ccc(F)cc1C1CCN(c2ccn3c(CC4CC4)nnc3c2Cl)CC1 [[^11C]B-4]: 1.78

* * *

Test: Biodistribution studies of 11C tracers
Assay type: in vivo, Wistar rats
Details: 2 min p.i.
Listed below: % ID Hippocampus values for each entry.
readout.name: % ID Hippocampus (% ID)

- [11CH3]Oc1ccc(F)cc1C1CCN(c2ccn3c(CC4CC4)nnc3c2Cl)CC1 [[^11C]B-4]: 0.010
- [11CH3]Oc1cc(F)cc(F)c1C1CCN(c2ccn3c(CC4CC4)nnc3c2Cl)CC1 [[^11C]B-7]: 0.020
- [11CH3]Oc1c(F)ccc(F)c1C1CCN(c2ccn3c(CC4CC4)nnc3c2Cl)CC1 [[^11C]B-2]: 0.028
- [11CH3]Oc1c(F)ccc(F)c1C1CCN(c2ccn3c(CC4CC4)nnc3c2C(F)(F)F)CC1 [[^11C]B-3]: 0.017
- [11CH3]Oc1ccc(F)c(F)c1C1CCN(c2ccn3c(CC4CC4)nnc3c2Cl)CC1 [[^11C]B-10]: 0.017
- [11CH3]Oc1cccc(F)c1C1CCN(c2ccn3c(CC4CC4)nnc3c2Cl)CC1 [[^11C]B-6]: 0.019

* * *

Assay: Biodistribution studies of 11C tracers
Assay type: in vivo, Wistar rats
Details: 60 min p.i.
Listed below: % ID Urine values for each entry.
readout.name: % ID Urine (% ID)

- [11CH3]Oc1c(F)ccc(F)c1C1CCN(c2ccn3c(CC4CC4)nnc3c2C(F)(F)F)CC1 [[^11C]B-3]: 0.4
- [11CH3]Oc1ccc(F)c(F)c1C1CCN(c2ccn3c(CC4CC4)nnc3c2Cl)CC1 [[^11C]B-10]: 0.4
- [11CH3]Oc1ccc(F)cc1C1CCN(c2ccn3c(CC4CC4)nnc3c2Cl)CC1 [[^11C]B-4]: 0.6
- [11CH3]Oc1c(F)ccc(F)c1C1CCN(c2ccn3c(CC4CC4)nnc3c2Cl)CC1 [[^11C]B-2]: 0.3
- [11CH3]Oc1cccc(F)c1C1CCN(c2ccn3c(CC4CC4)nnc3c2Cl)CC1 [[^11C]B-6]: 0.6
- [11CH3]Oc1cc(F)cc(F)c1C1CCN(c2ccn3c(CC4CC4)nnc3c2Cl)CC1 [[^11C]B-7]: 0.5

* * *

Experiment: Biodistribution studies of 11C tracers
Assay type: in vivo, Wistar rats
Settings: 30 min p.i.
readout.name: % ID Lungs

• [11CH3]Oc1c(F)ccc(F)c1C1CCN(c2ccn3c(CC4CC4)nnc3c2Cl)CC1 [[^11C]B-2] = 1.1 ± 0.5 % ID
• [11CH3]Oc1ccc(F)cc1C1CCN(c2ccn3c(CC4CC4)nnc3c2Cl)CC1 [[^11C]B-4] = 0.7 ± 0.1 % ID
• [11CH3]Oc1ccc(F)c(F)c1C1CCN(c2ccn3c(CC4CC4)nnc3c2Cl)CC1 [[^11C]B-10] = 0.8 ± 0.0 % ID
• [11CH3]Oc1cc(F)cc(F)c1C1CCN(c2ccn3c(CC4CC4)nnc3c2Cl)CC1 [[^11C]B-7] = 0.6 ± 0.1 % ID
• [11CH3]Oc1c(F)ccc(F)c1C1CCN(c2ccn3c(CC4CC4)nnc3c2C(F)(F)F)CC1 [[^11C]B-3] = 0.5 ± 0.2 % ID
• [11CH3]Oc1cccc(F)c1C1CCN(c2ccn3c(CC4CC4)nnc3c2Cl)CC1 [[^11C]B-6] = 0.8 ± 0.1 % ID
